- STUDY TARGET: Leukotriene B4 receptor 1 (Homo sapiens, UniProt Q15722)
- Sequence (Q15722 whole entry): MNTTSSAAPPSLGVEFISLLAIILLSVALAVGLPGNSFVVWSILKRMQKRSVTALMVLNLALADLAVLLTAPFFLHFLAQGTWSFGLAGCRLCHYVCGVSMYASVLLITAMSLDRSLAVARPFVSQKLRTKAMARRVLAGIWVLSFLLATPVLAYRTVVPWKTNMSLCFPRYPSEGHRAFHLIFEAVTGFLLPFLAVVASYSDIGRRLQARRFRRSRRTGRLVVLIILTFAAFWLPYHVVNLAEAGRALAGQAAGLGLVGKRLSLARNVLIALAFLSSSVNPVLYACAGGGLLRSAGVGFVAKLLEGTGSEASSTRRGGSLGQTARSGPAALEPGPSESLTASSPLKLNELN
- ASSAY TEXT: Antagonist activity at BLT1 receptor expressed in human HL60 cells assessed as inhibition of LTB4-stimulated calcium flux after 30 mins
- Type: functional, cell-based, HL-60
- TEST CONTEXT: read-out: IC50
pIC50: −log10 of the molar value.
Categories are defined by ranges of pIC50, namely class A = under 8, class B = from 8 up to 9, class C = 9 and over

As a guide, the following entries are already answered.
Challenge: Hi, small favor: classify "O=C(O)CCCOc1cccc(CCCCCCOc2cc(-c3cncnc3)cc(-c3ccc4c(c3)OCO4)c2)c1CCC(=O)O" by its pIC50 when you get a moment.
Response given: class C

Challenge: Hi, small favor: classify "O=C(O)CCCOc1cccc(CCCCCCOc2cc(-c3ccncc3)cc(-c3ccc4c(c3)OCO4)c2)c1CCC(=O)O" by its pIC50 when you get a moment.
Response given: class C

Others:
Challenge: Hi, small favor: classify "COc1ccc(-c2cc(OCCCCCCc3cccc(OCCCC(=O)O)c3CCC(=O)O)cc(-c3ccc4c(c3)OCO4)c2)cc1" by its pIC50 when you get a moment.
Response given: class B

Challenge: Hi, small favor: classify "COc1ccc(-c2cc(OCCCCCCc3cccc(OCCCC(=O)O)c3CCC(=O)O)cc(-c3ccc(OC)cc3)c2)cc1" by its pIC50 when you get a moment.
Response given: class A
